# experiment-notes: chemical genetic growth profiling, strain panel (AID 1159580);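 also: tested at 20 µM; growth read once vehicle control cultures reached saturation at 30 °C; lower values mean less growth of the strain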
# conditions: S. cerevisiae deletion strains, growth OD, locus YHR129C, strain ARP1
In all, about 5,500 compounds went through this assay and about 2,000 (36%) were called active. Inconclusive results (about 18%) are left out. Rule as the data show it: active = normalized growth mostly below about 0.91 (no sharp cut-off); inconclusive = no clear call, values can overlap the other calls; inactive = mostly above about 0.92. The list shows a part of the results.
Parameter call: string, one of active, inactive

[
  {
    "molecule": "COc1ccc(C(CN(C)C)C2(O)CCCCC2)cc1 (stereo not drawn)",
    "label": "inactive"
  },
  {
    "molecule": "CC[C@@]1(O)C[C@H](O[C@H]2C[C@H](N(C)C)[C@H](O)[C@H](C)O2)c2c(cc3c(c2O)C(=O)c2c(O)cccc2C3=O)[C@H]1C(=O)OC",
    "label": "active"
  },
  {
    "molecule": "COC(=O)[C@@H]1OC(=O)C2OC23[C@@]1(C)CCC1[C@]2(C)C(C[C@H](O)[C@]13C)C(C)(C)[C@H](OC(C)=O)C[C@@H]2OC(C)=O (stereo partly drawn)",
    "label": "inactive"
  },
  {
    "molecule": "COc1ccc(C(=O)CC(=O)O)c2c1C=CC(C)(C)O2",
    "label": "inactive"
  },
  {
    "molecule": "O=C(O[C@@H]1Cc2c(O)cc(O)cc2O[C@@H]1c1ccc(O)c(O)c1)c1cc(O)c(O)c(O)c1",
    "label": "inactive"
  },
  {
    "molecule": "Clc1ccc(C(c2ccc(Cl)cc2)C(Cl)(Cl)Cl)cc1",
    "label": "inactive"
  },
  {
    "molecule": "CC[C@H]1OC(=O)[C@H](C)[C@@H](O[C@H]2C[C@@](C)(OC)[C@@H](O)[C@H](C)O2)[C@H](C)[C@@H](O[C@@H]2O[C@H](C)C[C@H](N(C)C)[C@H]2O)[C@](C)(OC)C[C@@H](C)C(=O)[C@H](C)[C@@H](O)[C@]1(C)O",
    "label": "inactive"
  }
]

Now for a further molecule.
Test call for this molecule, please: CNC(=O)O/N=C(\C)SC inactive
